Source: the RNAGym collection of RNA variant scans (doi:10.7554/elife.80360)

B1: Twister Ribozyme (parent)
chain: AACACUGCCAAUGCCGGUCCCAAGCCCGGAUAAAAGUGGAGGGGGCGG

variants of: B1; assay: self-cleavage, relative activity (ratio to wild type); higher = more cleavage; co-transcriptional
Could you label it Condition met if measured self-cleavage is 0.8 or higher, and Condition not met otherwise?

Consider the following illustrative entries.
variant-designation	answer-label
A22U A32C	Condition met
G29C G47U	Condition not met
C21G G44A	Condition not met
C21U G43A	Condition not met
G13U C46A	Condition not met

### Prompt Threshold query (self-cleavage >= 0.8) on C14A C46G
### Response Condition met
